Consider the following variants; for each one, report its folding stability dG.
B1: HEEH_KT_rd6_0007 (parent)
chain: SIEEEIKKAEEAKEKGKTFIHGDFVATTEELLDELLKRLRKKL

# Variants of: B1
# Test: folding stability dG (cDNA display proteolysis); higher = more stable
# Measurement parameters: PBS, room temperature
Answer with a number only, understood to be in kcal/mol.

Would you mind telling me what folding stability dG value was observed for `K37L` ?
1.51

// folding stability dG lookup, key: `L36P`
-0.108

Look at this variant and give its reported folding stability dG. `E3T`
1.04

What does the data say about its folding stability dG? Entry: `E11L`
1.1

Request the reported folding stability dG associated with `A26F`
1.2

Recorded folding stability dG for `S1A` , please?
1.21

Sample `K41L` — what was its folding stability dG?
1.42

Using the record for `K37H` , report its folding stability dG.
1.07

Would you mind telling me what folding stability dG value was observed for `R40Q` ?
0.495

Record request: folding stability dG value, item `K8G`
0.922

Item under review: `K17W` . Reported folding stability dG?
1.84
